Just for reference, the supplement of paper PMC9170038 is where these values come from.

# System: MS2 coat protein
# experiment-notes: apparent KD of MS2 coat protein; designed switch direction (-1 OFF switch, 1 ON switch): -1; higher = weaker reporter binding
# settings: Eterna round: R95; input ligand: none
# label = satisfied if apparent KD of MS2 coat protein >= 0.03 µM else not satisfied

Input line: Given the entry AAAGUUCGAGGAUAUCUACUUAGCUACAUGAGGAUCACCCAUGUUAUCCUCCCGCUGGGAAGAGAAGGCGGUUAAA [Xeonceso] (puzzle: Exclusion 5) , answer whether its apparent KD of MS2 coat protein meets or surpasses 0.03 µM.
Output line: satisfied

Continuing:
Input line: Tell me whether apparent KD of MS2 coat protein is at least 0.03 µM here: AAGAGGUCAGGAUAUACGGAGAGAGGGAGUUGGUUAGGGUAACAUGAGGAUCACCCAUGUAGAAGGGACUAAGA [JR_Exclu2_Sub079] (puzzle: Exclusion 2)
Output line: not satisfied

Input line: What do we get for CAAAAGGAAGGAUAUGAUAAGCAGGACAUGAGGAUCACCCAUGUGACUGCCUCGUGGACAUCAGAAGGUCCAGGAC [Erqureorle] (puzzle: Exclusion 5) ?
Output line: not satisfied

Input line: Could you do the same for GGUCCUCCGGAGGAUAUGGAACUGGAGGUAGUACCAGAAGGCCGAACAUGAGGAUCACCCAUGUGCCCGUAAAA [Aarlean] (puzzle: Exclusion 6) , please?
Output line: not satisfied

Input line: Follow-up entry: GGAAAGGUAGGAUAUACGAAGAAAAAGGGUAGAAGAAGAACACAUGAGGAUCACCCAUGUAGAAGGACCAAAGC [Mat - Exclusion 2 - Mod of my Tesla design - D15] (puzzle: Exclusion 2)
Output line: not satisfied

Input line: Request: GCGAAAACAAACAGGUGAAACAUGAGGAUCACCCAUGUCCUCAUUUGCUCGUCUUAUAAGCUAUGCGAAAGCAUAGC [Mat - Sensor v3 - turn-off var 1 - Eli Mod - D55] (puzzle: Sensor v3, turn-off variant 1)
Output line: satisfied
